Kindly supply the reported apparent KD of MS2 coat protein values for the records listed here.
- System: MS2 coat protein
- MEASUREMENT_NOTES: apparent KD of MS2 coat protein; designed switch direction (-1 OFF switch, 1 ON switch): -1; higher = weaker reporter binding
- CONDITION_PARAMETERS: input ligand: microRNA oligo, concentration not stated
Respond with the bare value in nM.

Query: Which measured apparent KD of MS2 coat protein value corresponds to AGCUGUGGCCGAGGAUAUCUAAAUUCUCAAAACGAAAUAUAAUCGAACAUGAGGAUCACCCAUGUAGAGAAGGCGGUCUCAGCA [Eli eng2 - 032] (Eterna round: R96, puzzle: Exclusion NG 2) ?
Response: 34.6

Query: Would you mind telling me what apparent KD of MS2 coat protein value was observed for ACUAGCUUUUUGCAUUUUAGGUUUGUUGCUUCGUAUGUAACAUGAGGAUCACCCAUGUAUUACUGAUGUCGUCGUUU [JR_SV3TOV2_Sub090] (Eterna round: R96, puzzle: Sensor v3, turn-off variant 2) ?
Response: 15.5

Query: GET /values?readout=apparent KD of MS2 coat protein&item= UCGUUCCGUGUAGGAUAUUGGCCUUCUCUGGGCCGAGAAGGACAUGAGGAUCACCCAUGUAUGUUAUUAUCACGCGUGGCGCAU [Design 84] (Eterna round: R96, puzzle: Exclusion NG 1)
Response: 22.9

Query: Which value of apparent KD of MS2 coat protein has been reported for AGCGAAUAAGUAGGAUAUGAGAAUAGAUAGAGCUCAGAAGGACUACAUGAGGAUCACCCAUGUAAAGUCUUGAGGCUGCGUGGU [Prohibition 14 - Jieux - Exclusion NG 1] (Eterna round: R96, puzzle: Exclusion NG 1) in the records?
Response: 11.3

* * *

Kindly supply the reported apparent KD of MS2 coat protein values for the records listed here.
- Test system: MS2 coat protein
- MEASUREMENT_NOTES: apparent KD of MS2 coat protein; designed switch direction (-1 OFF switch, 1 ON switch): 1; higher = weaker reporter binding
- CONDITION_PARAMETERS: input ligand: microRNA oligo, concentration not stated
Form entry: value (nM) — number only.

Query: Find the recorded apparent KD of MS2 coat protein belonging to AGCUAUUAAUCAGGAUAUAGUGACAUGAGGAUCACCCAUGUAUUAAUGAUGAAAUGUGGUCGCCGCUAGAAGGGAUUACUAACA [SameState NG2 #44] (Eterna round: R96, puzzle: Same State NG 2) and report it.
Response: 22

Query: Name the reported apparent KD of MS2 coat protein value associated with the sequence ACUGCAAUUAACGCCUACAUGAGGAUCACCCAUGUAUGUAGGCAGGAUAUCGUUUGCUUUGCAAACGAGAAGGGCUGUAGUAGC [salish99_SSNG3_R04_003] (Eterna round: R96, puzzle: Same State NG 3)
Response: 59.4

Query: Give the measured apparent KD of MS2 coat protein of UUCGAGUAGCAAGGAUAUCUUAUUUAGAUUUUAAGAGAAGGUGCUUAUUAGAAACAUGAGGAUCACCCAUGUAUUACUUCUUAU [JR_SSNG1_Sub066] (Eterna round: R96, puzzle: Same State NG 1) .
Response: 13.8

Query: For UGAACCGUCACAGGAUAUCAUGCGAAAAUUGCGUGAGAAGGGUGGAUGUUGUGCUCAAAGUUCUACAUGAGGAUCACCCAUGUU [SameState NG1 #44] (Eterna round: R96, puzzle: Same State NG 1) , what is its reported apparent KD of MS2 coat protein?
Response: 33.5

Query: Param item = GCUGGAAACUACAUGAGGAUCACCCAUGUUCCGGAAACGGCACAGGAUAUCUGUCCGAAAAGGUCAGAGAAGGGUGAAACCAGC [Fiskers NG3ss - 84] (Eterna round: R96, puzzle: Same State NG 3) ; retrieve measured apparent KD of MS2 coat protein.
Response: 90.3

* * *

Kindly state apparent KD of MS2 coat protein for each of the entries shown.
- Tested on: MS2 coat protein
- MEASUREMENT_NOTES: apparent KD of MS2 coat protein; designed switch direction (-1 OFF switch, 1 ON switch): 1; higher = weaker reporter binding
- CONDITION_PARAMETERS: input ligand: none
Field: numeric (µM). Do not append units.

Query: State the recorded apparent KD of MS2 coat protein for this entry: GUAACAUGACGAGGAUAUGGAACAUGAGGAUCACCCAUGUAUGUUCCAUAACGCGAAUGACGAAUCCAGAAGGCGUCGUGAAUG [Mat - Same State NG 2 - JL mod - D29] (Eterna round: R96, puzzle: Same State NG 2)
Response: 0.22

Query: Consider the sequence shown here: AUUACGAGCGUAGGAUAUGGGAAAGGAAGUGUACCAGAAGGACGAAUACAGCGUCCGGACAUGAGGAUCACCCAUGUAGGACGC [PowerStrip SSNG 1.19] (Eterna round: R96, puzzle: Same State NG 1) What is its recorded apparent KD of MS2 coat protein?
Response: 0.0261

Query: Consider the sequence shown here: GAGGGCGAAAGCAACAUGAGGAUCACCCAUGUCCUCGGAGGGCAGGAUAUCCGGCGGUAGCCGAAGGAGAAGGGUCGGUAAACC [AK SSNG3-V2-33] (Eterna round: R96, puzzle: Same State NG 3) What is its recorded apparent KD of MS2 coat protein?
Response: 0.184

Query: Dear colleague, I am looking for the recorded apparent KD of MS2 coat protein of the following sequence: UCAAGAUCGCGAGGAUAUCGCGAGGAUCACCCGUGAGAAGGCGCAGAGCCGAGGAUCACCCGGCUGAUCCUGAGGAGGAGGUAA (Eterna round: R96, puzzle: Same State NG 1)
Response: 0.42

Query: // lookup apparent KD of MS2 coat protein for GUUAGGAAUCUAGCAAACAUGAGGAUCACCCAUGUAAGUGGGAAGGAUAUGGUACAGAAACUGUACCAGAAGGUCUUAUUGUUU [Omei SS(NG) 3 AV8] (Eterna round: R96, puzzle: Same State NG 3)
Response: 0.28

Query: Item GGUAGGUUACUACCAAACAUGAGGAUCACCCAUGUAAGUGGGAAGGAUAUGGUACCUAAAAGGUACCAGAAGGUCCAAUUAAUU [Mat - Same State NG 3 - JL Mod - D98] (Eterna round: R96, puzzle: Same State NG 3) has what recorded apparent KD of MS2 coat protein?
Response: 0.584

Query: Need apparent KD of MS2 coat protein of GUUUGAUGGUGAGGAUAUGUACAAAGAUAGGGUAUAGAAGGCAUGCGCCGGGAAACCGCGGUACAUGAGGAUCACCCAUGUGUC [Eternabot solution 36] (Eterna round: R96, puzzle: Same State NG 1) , thanks.
Response: 0.121

Query: Fill blank: measured apparent KD of MS2 coat protein of the sequence UUCCCAUCGGGAGGAUAUGGAACCUUAUUGGUUCUAGAAGGUCCAACAUGAGGAUCACCCAUGUGGGAGUGGUCUAAUGACCAC [SS NG10LRO02] (Eterna round: R96, puzzle: Same State NG 1) is ____.
Response: 0.159

Query: What does the data say about its apparent KD of MS2 coat protein? Entry: GCGAGCGUACUUGCAACAUGAGGAUCACCCAUGUUAACUGGACAGGAUAUGGUACCGUUUCGGUACCAGAAGGGUUCAUCAUGU [JL SSNG3 3.67] (Eterna round: R96, puzzle: Same State NG 3)
Response: 0.183

Query: Name the recorded apparent KD of MS2 coat protein for UAUGACUUACAAGGAUAUUAAUGACAUGAGGAUCACCCAUGUGGCUGUGUGUGUUAGAUAAGCUUUAAGAAGGUGUGCGUGUCU [JR_SSNG2_Sub096] (Eterna round: R96, puzzle: Same State NG 2) .
Response: 0.386

Query: Could you tell me which apparent KD of MS2 coat protein is on file for GGACGUCAUCUCACUGAUUAACAUGAGGAUCACCCAUGUUCACAGGAUAUGAGUCCGAUUAGGACUCAGAAGGGUGAGACGUCC [Fiskers NG3ss - 47] (Eterna round: R96, puzzle: Same State NG 3) ?
Response: 0.0193

Query: So what does the record say about apparent KD of MS2 coat protein for AGUCCAGCCUGAGCUGGACAAAUGCAUGUACAUGAGGAUCACCCAUGUUCAUGUACAAGCAUUUUGCUCGUCUUAAA [Sensor for hsa-mir-208a (JL zipper 55 mod - 61 to A)] (Eterna round: R96, puzzle: Sensor for hsa-mir-208a) ?
Response: 0.346

Query: Look up apparent KD of MS2 coat protein: UGUUUGUUGUGAGGAUAUACGUACACCCUACAUGAGGAUCACCCAUGUUGUUCCCUUGAUUGUUGGUAGAAGGCACUUGGUUAU [JR_SSNG2_Sub049] (Eterna round: R96, puzzle: Same State NG 2)
Response: 0.118

Query: // lookup apparent KD of MS2 coat protein for AGGAAACAUGAGGAUCACCCAUGUAAGAUAUACACAGGAUAUGCGAAAAGAAACAAAGAAGCAGAAGGGUGGAAAA [75%, Ex sub1, 11] (Eterna round: R96, puzzle: Same State 1)
Response: 0.0435

Query: Requested read-out: apparent KD of MS2 coat protein. Entry: GUGGUGGGUUGAGGAUAUUGGUUGCAUAUGUUUAACAUGAGGAUCACCCAUGUGGGUUGCGGUUUCGAGAAGGUAGGUUGCUGG [salish99_SSNG2_r04_045bad] (Eterna round: R96, puzzle: Same State NG 2)
Response: 0.112

Query: Which apparent KD of MS2 coat protein is listed for UUGCUCGUGUAAGGAUAUGCAGCCGUUUCGGCUGCAGAAGGUACUAUAAUACAUGAGGAUCACCCAUGUCUCUAUUAUUUAGUG [salish99_SSNG1_r04_925] (Eterna round: R96, puzzle: Same State NG 1) ?
Response: 0.0494

Query: // lookup apparent KD of MS2 coat protein for GUGGUCAGACAUGAGGAUCACCCAUGUGGAAUAAAUAACGUACAGGAUAUUGAAUAUAGGAUAUACAAGAAGGGUAGAUUGGUG (Eterna round: R96, puzzle: Same State NG 3)
Response: 0.127

Query: # apparent KD of MS2 coat protein lookup, item UUCGAGUAGCAAGGAUAUCUUAUUUAGAUUUUAAGAGAAGGUGCUUAUUAGAAACAUGAGGAUCACCCAUGUAUUACUUCUUAU [JR_SSNG1_Sub066] (Eterna round: R96, puzzle: Same State NG 1)
Response: 0.0201

The measurements presented in this section are drawn from the supplement of paper PMC9170038.
